Data provenance is the supplement of paper PMC10567573.

B1: PTPN9 (parent)
chain: LKGAFPARLKKVLIVGAPIWFRVP

Variants of: B1
Assay: protein stability index of a GFP-peptide fusion (GPS, HEK-293T) (PSI 1-6); higher = more stable;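 also: lentivirally expressed fusions sorted by FACS into six bins by GFP to DsRed ratio, PSI derived from sequencing read proportions per bin multiplied by bin number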
Conditions: c terminus: a fixed tail appended
measured parameter: protein stability index

[
  {
    "variant notation": "P24L",
    "measured parameter": "protein stability index",
    "value measured": 3.02
  },
  {
    "variant notation": "P24D",
    "measured parameter": "protein stability index",
    "value measured": 4.03
  },
  {
    "variant notation": "I19T",
    "measured parameter": "protein stability index",
    "value measured": 4.11
  },
  {
    "variant notation": "R8N",
    "measured parameter": "protein stability index",
    "value measured": 2.74
  },
  {
    "variant notation": "A17L",
    "measured parameter": "protein stability index",
    "value measured": 3.42
  },
  {
    "variant notation": "L1I",
    "measured parameter": "protein stability index",
    "value measured": 4.73
  },
  {
    "variant notation": "K11G",
    "measured parameter": "protein stability index",
    "value measured": 1.84
  },
  {
    "variant notation": "L13P",
    "measured parameter": "protein stability index",
    "value measured": 2.55
  },
  {
    "variant notation": "A4Q",
    "measured parameter": "protein stability index",
    "value measured": 2.61
  },
  {
    "variant notation": "P18W",
    "measured parameter": "protein stability index",
    "value measured": 4.58
  },
  {
    "variant notation": "P6H",
    "measured parameter": "protein stability index",
    "value measured": 2.28
  },
  {
    "variant notation": "I14R",
    "measured parameter": "protein stability index",
    "value measured": 2.87
  },
  {
    "variant notation": "W20H",
    "measured parameter": "protein stability index",
    "value measured": 4.59
  },
  {
    "variant notation": "G16N",
    "measured parameter": "protein stability index",
    "value measured": 2.29
  },
  {
    "variant notation": "V15K",
    "measured parameter": "protein stability index",
    "value measured": 1.37
  },
  {
    "variant notation": "P18G",
    "measured parameter": "protein stability index",
    "value measured": 4.24
  },
  {
    "variant notation": "F5L",
    "measured parameter": "protein stability index",
    "value measured": 3.82
  },
  {
    "variant notation": "V12G",
    "measured parameter": "protein stability index",
    "value measured": 1.27
  },
  {
    "variant notation": "A17K",
    "measured parameter": "protein stability index",
    "value measured": 2.28
  },
  {
    "variant notation": "K11H",
    "measured parameter": "protein stability index",
    "value measured": 1.99
  },
  {
    "variant notation": "L9V",
    "measured parameter": "protein stability index",
    "value measured": 4.71
  },
  {
    "variant notation": "A4D",
    "measured parameter": "protein stability index",
    "value measured": 3.24
  },
  {
    "variant notation": "G3D",
    "measured parameter": "protein stability index",
    "value measured": 3.16
  },
  {
    "variant notation": "I14D",
    "measured parameter": "protein stability index",
    "value measured": 1.46
  },
  {
    "variant notation": "P18C",
    "measured parameter": "protein stability index",
    "value measured": 2.33
  },
  {
    "variant notation": "W20E",
    "measured parameter": "protein stability index",
    "value measured": 3.74
  },
  {
    "variant notation": "G16F",
    "measured parameter": "protein stability index",
    "value measured": 2.2
  },
  {
    "variant notation": "R8S",
    "measured parameter": "protein stability index",
    "value measured": 3.94
  },
  {
    "variant notation": "F21R",
    "measured parameter": "protein stability index",
    "value measured": 2.39
  },
  {
    "variant notation": "L1C",
    "measured parameter": "protein stability index",
    "value measured": 3.38
  },
  {
    "variant notation": "V12A",
    "measured parameter": "protein stability index",
    "value measured": 3.43
  }
]
